B1: TPR t1 (parent)
chain: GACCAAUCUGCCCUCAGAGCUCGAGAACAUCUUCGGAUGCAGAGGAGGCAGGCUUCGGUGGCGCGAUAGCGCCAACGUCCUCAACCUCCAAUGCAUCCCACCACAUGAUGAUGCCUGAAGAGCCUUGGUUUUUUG

Variants of: B1
Assay: polymerase ribozyme fitness, log enrichment relative to wild type (log ratio); higher = more active; in vitro selection for triplet polymerase activity
Classification field: 1 = polymerase ribozyme fitness (log ratio) at or over -2; 0 = polymerase ribozyme fitness (log ratio) under -2.

[
  {
    "Sequence chain": "GACCAAUCUGCCCUCAGAGCUCGAGAACAUCUUCGGAUGCAGAGGAGGCAGGCUUCGGUGGCGCGAUAGCGCCAACGUCCUCAACCUCCAAUGCAUCCCACCACAUGAUGAUCCCUGACGAGCCUUGGUUUUUUG [G113C A119C]",
    "Qualitative label": 0
  },
  {
    "Sequence chain": "GACCAAUCUGCCCUCAGAGCUCGAGAACAUCUUCGGAUGCAGAGGAGGCAGGGUUCGGUGGCGCGAUAGCGCCAACGUCCUCAACCUCCAAUGCAUCCCACCACAAGAUGAUGCCUGAAGAGCCUUGGUUUUUUG [C53G U106A]",
    "Qualitative label": 1
  },
  {
    "Sequence chain": "GACCAAUCUGCCCUCAGAGCUCGAGAACGUCUUCGGAUGCAGAGGAGGCAGGCUUCGGUAGCGCGAUAGCGCCAACGUCCUCAACCUCCAAUGCAUCCCACCACAUGAUGAUGCCUGAAGAGCCUUGGUUUUUUG [A29G G60A]",
    "Qualitative label": 1
  },
  {
    "Sequence chain": "GACCAAUCUUCCCUCACAGCUCGAGAACAUCUUCGGAUGCAGAGUAGGCAGGCUUCGGUGGCGCGAUAGCGCCAACGUCCUCAACCUCCAAUUCAUCCCACCACAUGAUGAUGCCUGAAGAGGCUUGGUUUUUUG [G10U G17C G45U G93U C123G]",
    "Qualitative label": 0
  },
  {
    "Sequence chain": "GACCAAUGUGCCCUCAGAGCUCGAGAACAUCUUCGGAUGCAGAGGAGGCAGGCUUCGGUGGCGCGAUAGCGCCAACGUCCUUAACCUCCAAUGCAUUCCACCACAUGAUGAUGCCUGAAGAGCCUUCGUUUUUUG [C8G C82U C97U G127C]",
    "Qualitative label": 1
  },
  {
    "Sequence chain": "GACCAAUCUGCCCUCAGAGCUCGAGAACAUCUUCGGAUACAGAGGAGGCAGGCAUCGGUGGCGCGAUAGCGCCAACGUCCUCAACCUCCAAUGCAUCCCACCACAUGAUGAUGCCUGAAGAGCCUUGGUUUUUUG [G39A U54A]",
    "Qualitative label": 1
  },
  {
    "Sequence chain": "GACCAAUCUGCCCUCAGAGCUCGAGAACAUCUUCGGAUGCAGAGUAGGCAGGCUUCGGUGGCGUGAUAGCGCCAACUUUCUCAACCUCCAAUGCAUCCCACCACAUGAUGAUGGCUGAAGAGCCUUGGUUUUUUG [G45U C64U G77U C79U C114G]",
    "Qualitative label": 0
  },
  {
    "Sequence chain": "GACCAAUCUGCCCUCAGAGCUCGAGAACAUCUUCGGAUGCAGAGGAGGCAGGCUUCGGUGGCGAGAUAGCGCCAACGUCCUCAACCUGCAAUGCAUCCCACCACAUGAUUAUGCCUGAAGAGCCUUGGUUUUUUG [C64A C88G G110U]",
    "Qualitative label": 0
  },
  {
    "Sequence chain": "GACCAAUCUGCCCUCAGAGCUCGAGAACAUCUUCGGAUGCAGAGGAGGCAGGCUUCGGUGGCGCGAUAGCGCCAACGUCCUCAACCUCCAAUGCAUCCCACCACAUGAUGGUGCCUGAAGAGCAUAGGUUUUUUG [A111G C124A U126A]",
    "Qualitative label": 1
  },
  {
    "Sequence chain": "GAUCAAUCUGCCCUCAGAGCUCGAGAACAUCUUCGGAUGCAGAGGAGGCAGGCUUCAGUGGCGCGAUAGCGUCAACGUCCUCAACCUCCAAUGCAUCCCACCACAUGAUGAUGCCUGAAGAGCCUUGGUUUUUUG [C3U G57A C72U]",
    "Qualitative label": 1
  },
  {
    "Sequence chain": "GACCAAUCUGCCCUCAGAGCUCGAGAACAUCUUCGGAUGCAGAGGAGGCAGGCUUCGGGGGCACGAUAGCGCCAACGUCCUCAACCCCCAAUGCAUCCCACCACAUGAUGAUGUCUGAAGAGCCUUGGUUUUUUG [U59G G63A U87C C114U]",
    "Qualitative label": 0
  },
  {
    "Sequence chain": "GACCAAUCUGCCCUCAGAGCUCGACAACAUCUUCGGAUGCAGAGGAGGCAGGCUUCGGUGCCGCGAUAGCGCCAACGUCCUCAACCUCCAAGGCAUCCCACCACAUGAUGAUGCCUUAAGAGCCUUGGUUUUUUG [G25C G61C U92G G117U]",
    "Qualitative label": 0
  },
  {
    "Sequence chain": "GACCAAUCUGCACUCAGAACUCGAGAACAUCUUCGGAUGCAGAGGAGGCAGGCUUCGGUUGCGCGAUAGCGCCAACGUCCUCAACCUCCAAUGCAUCCCACCACAUGAUGAUGCCUGAAGAGCCUUGGUUUUUUG [C12A G19A G60U]",
    "Qualitative label": 0
  },
  {
    "Sequence chain": "GACCAAUCUGCCCUCAGAGCUCGAGAACAUCUUCGGAUGCAGAGGAGGCAGGCUUCUGUGGCGCGAUAGCGCCAACGUUCUCAACCUCCAAUGCAUCCCACCACAUGGUGAUGCCUGAAGAGCCUUGGUUUUUUG [G57U C79U A108G]",
    "Qualitative label": 0
  },
  {
    "Sequence chain": "GACCAAUCUGGCCUCAGAGCUCGAGAACAUCUUCGGAUGCAGAGGAGGCAGGCUUCGGUGGCGCGAUAGCGCCAACGUCCUCAACCUCCAAUGCAUCCCAUCACAUGAUGAUGCCUGAAGAGCCUUGGUUUUUUG [C11G C101U]",
    "Qualitative label": 1
  },
  {
    "Sequence chain": "GACCAAUAUGCCCUCAGAGCUCGAGAACAUCUUCGGAUGCAGAGGAGGCAGGCUUCGGUGGAGCGAUAGCGCCAACGUCCUCAACCUCCAAUGCAUCCCACCACAUGAUGAUGCCUGAAGAGCCUUGGUGUUUUG [C8A C62A U130G]",
    "Qualitative label": 1
  },
  {
    "Sequence chain": "GACCAAACUGCCCUCAGAGCUCGAGAACAUCCUCGGAUGCAGAGGAGGCAGGCUCCGGUCGCGCGAUAGCGCCAACGUCCUCAACCUCCAAUGCAUCCCACCACAUGAUGAUGCCUGAAGAGCCUUGGAUUUUUG [U7A U32C U55C G60C U129A]",
    "Qualitative label": 1
  },
  {
    "Sequence chain": "GACCAAUCUGCCCUCAGAGCUCGAGAACAUCUUCGGAUUCAGAGGAGGCAGGCUUCGGUGUCGCGAUAGCGCCAACGUCCUCAACCUCCAAUGCAUCCCACCACAAGAUGAUGCCUGAAGAGCCUUGGUUUUUUG [G39U G61U U106A]",
    "Qualitative label": 1
  },
  {
    "Sequence chain": "GACCAAUCUGCCCUCAGAGCUCGAGAACAUCUUCGGAUGCAGAGGUGGCAGGCUUUGGUGGCGCGAUAGCGCCAACGUCCUCAACCUCCAAUGCAUCCCACCACAUGAUGAUGACUGAAGAGCCUUGGUUUUUUG [A46U C56U C114A]",
    "Qualitative label": 0
  },
  {
    "Sequence chain": "GACCAAUCUGCCCUCAGAGCUCGAGAACAUCUUCGGAUGCAGAGGAGGCAGGCUUCGGUGGCGCGAUAGCGGCAACGUCCUCAACCUCCAAUGCAUCCCACCACAUGAUGAAGCCUGAAGAGCCUUGGAUUUUUG [C72G U112A U129A]",
    "Qualitative label": 1
  },
  {
    "Sequence chain": "GACCAAUCUGCCCUCAGAGCUCGAGAACAUCUUCGGAUGCAGAGGAGGCAGGCUUCGGUGGCGCGAUAGCGCCAACGUCCUCAACGUCCAAUGCAUCCCUCCACAUGAUGAUGCCUGAAGAGCCUUGGUUUUUUG [C86G A100U]",
    "Qualitative label": 1
  },
  {
    "Sequence chain": "GACCAAUCUGCCCUCAGAGCUCGAGAACAUCUUCGGAUGCAGUGGAGGGAGGCUUCGGUGGCGCGAUAGCGACAACGUCCUCAACAUCCAAUGCAUCCCACCACAUGAUGAUGCCUGAAGAGCCUUGGUUUUUUG [A43U C49G C72A C86A]",
    "Qualitative label": 0
  },
  {
    "Sequence chain": "GACCAAUCUGCCCUCAGAGCUCGAGAACAUCUUCGGCUGCAGAGGAGGCAGGCUUCGGUGGCGCGAUAGCGUCAACGUCCUCAACCUCCAAUGCAUCCCACCACAUGAUGAUGCCUGAAUCGCCUUGGUUUUUUG [A37C C72U G120U A121C]",
    "Qualitative label": 1
  },
  {
    "Sequence chain": "GACCAAUCUGCCCUCAGAGCUCGAGAACAUCUCCGGAUGCAGAGAAGGCAGGCUUCGGUGGCGCGAUAGCGCCAACGUCCUCAACCUCCAAUGCAUCCCACCACAUGAUGAUGCCUGAAGAGCCUUGGUUUUUUG [U33C G45A]",
    "Qualitative label": 0
  },
  {
    "Sequence chain": "GACCAAUCUGCCCUCAGCGCUCGAGAACAUCUUCGGAUGCAGAGAAGGCAGGUUUCGGUGGCGCGAUAGCGCCAACGUCCUCAACCUCCAAUGCAUCCCACCACAUGAUGAUGCCUGAAGAGCCUUGGUUUUUUG [A18C G45A C53U]",
    "Qualitative label": 0
  },
  {
    "Sequence chain": "GCCCAAUCUGCCCUCAGAGCUCGAGAACAUCUUCGGAUGCAGAGGAUGCAGGCUUCGGUGGCGCGAUAGCGCCAACGCCCUCAACCUCCAAUGCAUCCCACCACAUGAUGACGCCUGAAGAGCCUUGGUUUUUUG [A2C G47U U78C U112C]",
    "Qualitative label": 1
  },
  {
    "Sequence chain": "GACCAAUCUGCCCUCAGAGCUCGAGAACAUCUUCGGAUGCAGAGGAGGCAGGCUUCGGUGGCGCGAUAGCGCCAACGAACUCAACCUCCAAUGCCUCCCACCACAUGAUGAUGCCUGAAGAGCCUUGGUUUUAUG [U78A C79A A95C U133A]",
    "Qualitative label": 0
  },
  {
    "Sequence chain": "GACCAAUCUGCCCUCAGAGCUCGAGAACAUCUUCGGAUGCAGAGUAGGCAGGCUUCGGUGGCGCGAUAGCGUCAACGUCCUCAACCACCAAUGCAUCCCACCACAUGAUGAUGCCUGAAGAGCCUUGGUUUUUUG [G45U C72U U87A]",
    "Qualitative label": 1
  },
  {
    "Sequence chain": "GACCAAUCUUCCCUCAGAGCUCGAGAACAUCUUCGGAUGCAGAGGAGGCAGGCUUCGGUGGCGCGAUAGCGCCAACGUCCUCAGCAUCCAAUGCAUCCCACCACAUGAUGAUGCCUGAAGAGCCUUGGUUUUUUG [G10U A84G C86A]",
    "Qualitative label": 1
  },
  {
    "Sequence chain": "GACCAAUCUGCCCUCAGAGCUCGGGAACAUCUUCGGAUGCAGAGGAGGCAGGCUUCGGAGGCGCGAUAGCGCCAACGCCCUCAAGCUCCAAUGCAUCCCACCACAGGAUGAUGCCUGAAGAGCCUUGGUUUUUUG [A24G U59A U78C C85G U106G]",
    "Qualitative label": 0
  },
  {
    "Sequence chain": "GACCAAUCUGCACUCAGAGCUCGAGAACAUCUUCGGAUGCAGACGAGGCAGGCUUCGGUGGCGUGAUAGCGCCAACGUCCUCAACCUCCAAUGCAUCCCACCACAUGAUGAUGCCUGAAGAGCCGUGGUUUUUUG [C12A G44C C64U U125G]",
    "Qualitative label": 0
  },
  {
    "Sequence chain": "GACCCAUCUGCCCUCAGAGCUCGAGAACAUCUUCGGAUGCAGAGGAGGCAGGCUUCGGUGGCGCGAUAGCGCCAACGUCCUCAACCUCCAAUGCAUCCCACCAUAUGAUGAUGCCUGAAGAGCCUUGGUUUUUUG [A5C C104U]",
    "Qualitative label": 1
  },
  {
    "Sequence chain": "GACCAAUCUGACCUCAGAGCUCGAGAACAUCUUCGGAUGCAGAGGAGGCAGGCUUCGGUGGCGCGAUAGCGCCAACGUUCUCAACCUCCAAUGCAUCCCACCACAUGAUGAUGCCUGAAGAGCCUUGGUUUUUUG [C11A C79U]",
    "Qualitative label": 1
  },
  {
    "Sequence chain": "GACCAAUCUGCCCUCAGAGCUCGAGAACACCUUCGGAUGCAGAGGAGCCAGGCUUCGGUGGCGUGAUAGCGCCAACGUCCACAACCACCAAUGCAUCCCACCACAUGAUGAUGCCUGAAGAGCAUUGGUUUUUUG [U30C G48C C64U U81A U87A C124A]",
    "Qualitative label": 0
  },
  {
    "Sequence chain": "GACCAAUCUGCCCUCAGAGCUCGAGAACAUCUUCGGAUGCAGAGGAGGCAGGCUUCGGUGGCGCGAUAGCGUCAACGUCCUCAAUCUCCAAUGCAUCCCACCACAUGAUGAUGCCUGAAGAGCCUUGGUUUUUUG [C72U C85U]",
    "Qualitative label": 1
  },
  {
    "Sequence chain": "GACCAAUCUGCCCUCAGAGCUCGAGAACAUCUUCGGAUGCAGAGGAGGCAGGCUUCGGUGGCCCGAUAGCGCCAACGUCCUCAACCUCCAAUGCAUCCCACCACAUGAUGAGGCCUGAAGAGCCUUGGUUUUUUG [G63C U112G]",
    "Qualitative label": 1
  },
  {
    "Sequence chain": "GACCAAUCUGCCCUCAGACCUCGAGAACAUCUUCGGAUGCAGAGGAGGCAGGCUUCGGUGGCGCGAUAGCGCCAACGUCCUCAACCUCCAAUGCAUCCCACCACAUGAUGAUGCCUGAAGAGCCUUGGUUUUUUG [G19C]",
    "Qualitative label": 1
  }
]
